System: Pseudomonas aeruginosa LL-1244
TEST_PROTOCOL: in vitro antibacterial MIC, agar plate dilution
Type: cell-based
MEASUREMENT_SETUP: Pseudomonas aeruginosa, LL1244, 18 h, 35° C., read-out: MIC
QUANTITY: MIC (µg/mL)

I. CCn1cc(C(=O)O)c(=O)c2c(F)c(F)c(N3CCN(C)CC3)c(F)c21
II. O=C(O)c1cn(C2CC2)c2cc(N3CCNC(c4ccccn4)C3)c(F)cc2c1=O (stereo not shown)
IN: // which entry has the larger MIC value, I or II ? Give the chosen item's label as your response.
OUT: I

P. CCn1cc(C(=O)O)c(=O)c2cc(F)c(N3CCNC(c4ccncc4)C3)c(F)c21 (stereo not shown)
Q. O=C(O)c1cn(C2CC2)c2cc(N3CCNC(COc4ccccc4)C3)c(F)cc2c1=O (stereo not shown)
IN: // which entry has the larger MIC value, P or Q ? Give the chosen item's label as your response.
OUT: Q
(Q: 32 µg/mL, P: 16 µg/mL)
